- Tested on: SK-MEL-2 melanoma
- MEASUREMENT_DESCRIPTION: NCI-60 one-dose screen, 48 h (100 = growth as untreated, 0 = no growth, -100 = all killed)
- TEST_PARAMETERS: 10 µM
- Experimental: Growth inhibition of the SK-MEL-2 human tumor cell line is measured as a screen for anti-cancer activity. Cells are grown in 96 well plates and exposed to the test compound for 48 hours. Compounds are tested at a single concentration, which is 10^-5 M for most compounds. The reported endpoint is percent growth (GI% or GIPRCNT), where numbers from 0 - 100% represent growth inhibition, and numbers from -100% - 0 represent cell death. For example, a value of 40 represents 60% growth inhibition. […]
The panel holds about 83,000 compounds, 20% with a hit somewhere; the sample as a whole holds those more often.
Classification scheme (growth): interval 1 (below -40%), interval 2 (-40% to below 20%), interval 3 (20% or more)

**Query** Which category fits this record: CC1=C(C=O)C2=C(C)C3(CC3)[C@@](C)(O)C(=O)C2=C1
**Result** interval 2

###

- Tested on: MDA-MB-435 melanoma
- MEASUREMENT_DESCRIPTION: NCI-60 one-dose screen, 48 h
- TEST_PARAMETERS: 10 µM
About 83,000 compounds went through this panel and 20% of them were active in at least one assay; those are over-represented in the sample as a whole. Active and inactive are the calls of the source. Rule for the calls: active = growth percent below 10; inactive = the rest.
Outcome (select one): y (active), n (inactive)

**Query** What did this assay record as the result for COc1cc2cc(C(=O)N3C[C@@H](CCl)c4c3cc(OC(=O)N3CCN(C)[C@@H]5CSSC[C@H]53)c3ccccc43)[nH]c2c(OC)c1OC ?
**Result** y

**Query** What was the test verdict on CC1=C2C(=C[C@@](C)(COP(=O)(Oc3ccccc3)Oc3ccccc3)[C@@H]2O)C(=O)[C@@](C)(O)C12CC2 ?
**Result** y

**Query** Hello, I am checking results. What call was entered for O=C(/C=C/c1cccc(Br)c1)c1nc2ccccc2n1Cc1ccc(F)cc1 ?
**Result** n

###

- Test system: NCI-H322M lung
- MEASUREMENT_DESCRIPTION: NCI-60 one-dose screen, 48 h
- TEST_PARAMETERS: 10 µM
This is part of a sample that, as a whole, favours compounds with a hit. Of some 83,000 tested, about 20% had one in any assay. Activity calls are given as the source filed them. Rule for the calls: active = growth percent below 10; inactive = the rest.
Respond only with the outcome that fits, drawn from active, inactive

1. O=C(/C=C/c1ccccc1Cl)c1nc2ccccc2n1Cc1ccc(F)cc1; active
2. COc1ccc(/C=C/C(=O)c2nc3ccccc3n2Cc2ccc(Br)cc2)cc1; inactive
3. COc1cc2cc(C(=O)N3C[C@@H](CCl)c4c3cc(OC(=O)N3CCN(C)[C@@H]5CSSC[C@@H]53)c3ccccc43)[nH]c2c(OC)c1OC; active

**Query** # lookup: test call for CC1=C(CCC=NNC(N)=O)C2=C(C)C3(CC3)[C@@](C)(O)C(=O)C2=C1
**Result** active

**Query** Outcome logged for COc1cc2cc(C(=O)N3C[C@@H](CCl)c4c3cc(OC(=O)N3CCN(C)[C@@H]5CSSC[C@H]53)c3ccccc43)[nH]c2c(OC)c1OC in this assay:
**Result** active

###

- Test system: TK-10 renal
- MEASUREMENT_DESCRIPTION: NCI-60 one-dose screen, 48 h (100 = growth as untreated, 0 = no growth, -100 = all killed)
- TEST_PARAMETERS: 10 µM
About 83,000 compounds went through this panel and 20% of them were active in at least one assay; those are over-represented in the sample as a whole.
REPORTED_METRIC: growth (%)
Give a bare numeral; the unit % is implied.

// worked examples, growth included
1. COC(=O)C[C@](O)(CCC(C)C)C(=O)O[C@@H]1C(OC)=C[C@]23CCCN2CCc2cc4c(cc2[C@H]13)OCO4; -23.8
2. Cc1c2oc3c(C)ccc(C(=O)N[C@@H]4C(=O)N[C@H](C(C)C)C(=O)N5CCC[C@H]5C(=O)N(C)CC(=O)N(C)[C@@H](C(C)C)C(=O)OC4C)c3nc-2c(C(=O)N[C@@H]2C(=O)N[C@H](C(C)C)C(=O)N3CC(=O)C[C@H]3C(=O)N(C)CC(=O)N(C)[C@@H](C(C)C)C(=O)OC2C)c(N)c1=O (stereo partly drawn); 5.82

Continue with the compound presented below.
**Query** Short answer please: growth, TK-10 renal, entry COCCOCCOCCOc1ccc(-n2cc(CCCN(CCNc3ccnc4cc(Cl)ccc34)C(=O)CCC(=O)O[C@@H]3O[C@@H]4OC5(C)CC[C@H]6[C@H](C)CC[C@@H]([C@H]3C)[C@@]46OO5)nn2)cc1
**Result** 52.5

###

- Test system: MDA-MB-468 breast
- MEASUREMENT_DESCRIPTION: NCI-60 one-dose screen, 48 h (100 = growth as untreated, 0 = no growth, -100 = all killed)
- TEST_PARAMETERS: 10 µM unless noted
The panel holds about 83,000 compounds, 20% with a hit somewhere; the sample as a whole holds those more often.
Here, each record is paired with measured growth data.
Your answer is read as %, so omit the unit and give the number.

Consider the worked cases shown below.
1. CCC(/C=C(C)/C=C/C(=O)c1c(O)c(-c2ccc(O)cc2)c[nH]c1=O)CO (centres undefined); 98.5
2. O=CN1N=C(c2ccc3c(c2)OCO3)CC1c1sc(N(CCCl)CCCl)nc1Cl (centres undefined); 90.9
3. C1CCC([PH+](C2CCCCC2)C2CCCCC2[PH+](C2CCCCC2)C2CCCCC2)CC1.O=C(C1[CH-]CCCC1)C1CCCC[N-]1.[Au] (centres undefined); -40.3

**Query** Please give the measured growth for this compound: CC[C@H](C)[C@@H]1OC(=O)C(C)(C)[C@H](O)[C@H](Cc2ccccc2)OC(=O)[C@H](C(C)C)OC(=O)[C@@H](NC(=O)c2cccc(NC=O)c2O)[C@@H](C)OC1=O
**Result** 9.86

**Query** # query: growth of entry CC(=O)C1CCC2C3CC=C4CC(OC(=O)Cc5ccc(N(CCCl)CCCl)cc5)CCC4(C)C3CCC12C (centres undefined)
**Result** 94.7

###

- Tested on: HL-60(TB) leukemia
- MEASUREMENT_DESCRIPTION: NCI-60 one-dose screen, 48 h (100 = growth as untreated, 0 = no growth, -100 = all killed)
- TEST_PARAMETERS: 10 µM unless noted
This is part of a sample that, as a whole, favours compounds with a hit. Of some 83,000 tested, about 20% had one in any assay.
REPORTED_METRIC: growth (%)
State just the number; it will be interpreted in %.

Some solved cases for reference:
1. Fc1cccc(CNc2nc(SCCN3CCOCC3)nc3c2cnn3CC(Cl)c2ccc(Br)cc2)c1 (configuration not stated); -23.6
2. CC[C@@]12CC(C(=O)OC)=C3Nc4cc5c(cc4[C@@]34CCN(C[C@H]3O[C@H]31)[C@@H]24)[C@@H]1[C@H](O5)[C@@H](O)[C@@]2(CC)CC(C(=O)OC)=C3Nc4cc(OC)ccc4[C@@]34CCN1[C@@H]24; -17
3. CCOC(=O)c1sc(N/N=C(\C)c2ccc3c(c2)Nc2ccccc2S3)nc1C; 22.1
4. CCCn1cc(-c2nc(Nc3ccc(C(=O)NCCCCNc4cccc5c4C(=O)N(C4CCC(=O)NC4=O)C5=O)cc3)nc3[nH]ccc23)cn1 (configuration not stated); -36.9
5. O=C(CSc1nc2ccccc2c(=O)[nH]1)NNC(=O)c1ccccc1Cl; 105

**Query** Please report the recorded growth for COc1ccc(OC)c(/C=N/NC(=O)c2ccc3nc(-c4ccc(Cl)cc4)[nH]c3c2)c1 .
**Result** 87.1

**Query** Fill in the blank: the reported growth of COC(=O)/C=C/c1cccc2c1C(=O)NC(C)(c1cc3cc4ccccc4cc3oc1=O)N2 (configuration not stated) is ____.
**Result** 54.7

###

- Tested on: MALME-3M melanoma
- MEASUREMENT_DESCRIPTION: NCI-60 one-dose screen, 48 h (100 = growth as untreated, 0 = no growth, -100 = all killed)
- TEST_PARAMETERS: 10 µM
This is part of a sample that, as a whole, favours compounds with a hit. Of some 83,000 tested, about 20% had one in any assay.
REPORTED_METRIC: growth (%)
Numeric only. Scale: %

1) Cc1c2oc3c(C)ccc(C(=O)N[C@@H]4C(=O)N[C@H](C(C)C)C(=O)N5CCC[C@H]5C(=O)N(C)CC(=O)N(C)[C@@H](C(C)C)C(=O)OC4C)c3nc-2c(C(=O)N[C@@H]2C(=O)N[C@H](C(C)C)C(=O)N3CC(=O)C[C@H]3C(=O)N(C)CC(=O)N(C)[C@@H](C(C)C)C(=O)OC2C)c(N)c1=O (stereo not given in full); -14.5
2) O=C(/C=C/c1cccc(Br)c1)c1nc2ccccc2n1Cc1ccc(Br)cc1; -36.5
3) C=CCN=C([Se])NC(=O)c1ccc2c(c1)OCO2; 110
4) CC(C)C[C@H](NC(=O)CNC(=O)C[C@H]1O[C@@H]2OC3(C)CC[C@H]4[C@H](C)CC[C@@H]([C@H]1C)[C@@]24OO3)B(O)O; -56.5
5) CC12OOC(C)(OO1)C2CCC(=O)NCCNc1ccnc2cc(Cl)ccc12 (stereo not given); 89.7

Now consider the entry below.
**Query** Item CC(C)N=C([Se])NC(=O)c1ccccc1 has what recorded growth?
**Result** -24.7
